# Test system: HEK-293T
# TEST METHOD NOTES: Incucyte cell viability with HEK293T; further: unitless GR value; below 1 slowed growth and below 0 cell loss
# Type: toxicity, cell-based
# SETUP CONDITIONS: human, 18 h, 10 µM, compound concentration 10 uM, replicate number 1, timepoint 18 hours
Tag: t if measured Growth Rate is not below 0.6, f if it is.

Input line: Has `Cc1nn(C)c(C)c1-c1cccc2c1CC[C@H](N(C)C)C2` a recorded Growth Rate greater than or equal to 0.6?
Output line: t

Input line: Evaluate O=c1ccn([C@@H]2O[C@H](COP(=O)([O-])OP(=O)([O-])OP(=O)([O-])OP(=O)([O-])OC[C@H]3O[C@@H](n4ccc(=O)[nH]c4=O)[C@H](O)[C@@H]3O)[C@@H](O)[C@H]2O)c(=O)[nH]1.[Na+].[Na+].[Na+].[Na+] [DIQUAFOSOL TETRASODIUM] : Growth Rate at minimum 0.6?
Output line: t

Input line: I'd appreciate it if you could say whether CCCCCCCC/C=C\CCCCCCCC(N)=O [OLEAMIDE] has Growth Rate at least equal to 0.6.
Output line: t

Input line: Please indicate if the recorded Growth Rate for CC[S+]([O-])c1nc(-c2cccc(OCc3ccccc3)c2)cc(C(F)(F)F)n1 (stereo unspecified) meets or exceeds 0.6.
Output line: f

Input line: Assess whether reported Growth Rate for C[N+]1(C)[C@@H]2C[C@@H](OC(=O)C(O)(c3cccs3)c3cccs3)C[C@H]1[C@@H]1O[C@@H]12.O.[Br-] [TIOTROPIUM BROMIDE] sits at 0.6 or higher.
Output line: t

Input line: Does the compound `COc1cc(NC(=O)CCN2CCC(OC(=O)Nc3ccccc3-c3ccccc3)CC2)c(Cl)cc1CNC[C@H](O)c1ccc(O)c2[nH]c(=O)ccc12` have recorded Growth Rate that is 0.6 or more?
Output line: t

Input line: Growth Rate >= 0.6 for `COc1cc(/C=C/C(=O)NCCn2c(C)cc3ccccc32)cc(OC)c1OC` ?
Output line: t

Input line: Is it the case that `COc1cc(Nc2ncc3c(n2)-c2ccc(Cl)cc2C(c2c(F)cccc2OC)=NC3)ccc1C(=O)O` has Growth Rate reaching or exceeding 0.6?
Output line: f

Input line: Does the compound `CC[C@@H](C)Nc1nc(C)nc2c(-c3ccc(OC)nc3C)c(C)nn12` have recorded Growth Rate that is 0.6 or more?
Output line: t

Input line: Is the recorded value of Growth Rate equal to or greater than 0.6 for this compound? `CN[C@@H](C)C(=O)N[C@H]1CCCC[C@H]2CC[C@@H](C(=O)N[C@@H](c3ccccc3)c3cn(CCCCc4ccc(CCCCn5cc([C@@H](NC(=O)[C@@H]6CC[C@@H]7CCCC[C@H](NC(=O)[C@H](C)NC)C(=O)N76)c6ccccc6)nn5)cc4)nn3)N2C1=O`
Output line: t

Input line: Given the entry `CCc1cc2cc(NS(=O)(=O)c3ccc(C#N)cc3)ccc2n(CC)c1=O` , answer whether its Growth Rate meets or surpasses 0.6.
Output line: f

Input line: Identify whether the reported Growth Rate of the following compound is 0.6 or greater: `Nc1nc(-c2ccco2)c2cnn(Cc3ccccc3F)c2n1`
Output line: f

Input line: Given the entry `Cc1cc(CN)cc(C)c1-c1ncn(C)c1-c1ccnc2cc(F)ccc12` , answer whether its Growth Rate meets or surpasses 0.6.
Output line: t

Input line: Please tell me: is the compound `COc1cc(C(=O)N2CC[C@@H](O)[C@@H](N)C2)cc2nc(-c3cc4ccccc4n3CC3CC3)n(C)c12.Cl` at or over 0.6 in terms of Growth Rate?
Output line: t

Input line: Hi team, for `O=C1NC(NC23CC4CC(CC(C4)C2)C3)=N/C1=C\c1ccc2ncsc2c1` , is the recorded Growth Rate at or above 0.6?
Output line: f

Input line: Could you please find out whether `CSCC[C@H](NC(=O)[C@@H]1CCCN1C(=O)CNC(=O)[C@H](CCCCN)NC(=O)[C@H](Cc1cnc[nH]1)NC(=O)[C@H](CO)NC(=O)[C@H](CC(C)C)NC(=O)[C@H](CCCNC(=N)N)NC(=O)[C@@H]1CCCN1C(=O)[C@H](CCCNC(=N)N)NC(=O)[C@@H](N)CCC(N)=O)C(=O)N1CCC[C@H]1C(=O)N[C@@H](Cc1ccccc1)C(=O)O` has Growth Rate that meets 0.6 or exceeds it?
Output line: t

Input line: State whether the measured Growth Rate reaches 0.6, counting equality as reaching it, for `COc1ccncc1C(=O)NC(=O)Nc1ccc(-c2ccccc2)c(C(F)(F)F)c1`
Output line: f

Input line: Decide: is the reported value of Growth Rate for `CC(C)Oc1ccc(F)c(-c2cnc(N)c(C(=O)Nc3cnccc3N3CCC[C@@H](C(=O)O)C3)n2)c1` equal to or greater than 0.6?
Output line: f

Input line: Textbook exercise: given the entry `COC[C@@H](CC(C)C)NC1=N/C(=C\c2ccc3ncsc3c2)C(=O)N1C` , state whether its Growth Rate is greater than or equal to 0.6.
Output line: f

Input line: # check: Growth Rate of `C=CCNc1ncnc2ccc(Br)cc12` is greater than or equal to 0.6
Output line: f

Input line: Given `O=c1c2cccn2c2ccccc2n1CCCN1CCC(c2ccc(Cl)cc2)CC1` , state whether its Growth Rate is at least 0.6.
Output line: f

Input line: Evaluate `CCCCCCCCCCCCCCC[C@@H](O)[C@@H](N)COP(=O)(O)O` : Growth Rate at minimum 0.6?
Output line: f

Input line: Could you tell me if the measured Growth Rate of `OCCN1CCN(CCCN2c3ccccc3Sc3ccc(Cl)cc32)CC1` reaches 0.6 or more?
Output line: t

Input line: Could you verify whether the entry `C[C@@H](OC[C@@]1(c2ccccc2)CC[C@]2(CCC(=O)N2)CN1)c1cc(C(F)(F)F)cc(C(F)(F)F)c1` shows Growth Rate of no less than 0.6?
Output line: t

Input line: Dear colleague, could you confirm whether `C[C@@H]1C[C@H]2[C@@H]3CCC4=CC(=O)C=C[C@]4(C)[C@@]3(F)[C@@H](O)C[C@]2(C)[C@@]1(O)C(=O)CO` has Growth Rate at or above 0.6?
Output line: t

Input line: I'd appreciate it if you could say whether `CSCC[C@H](NC=O)C(=O)N[C@@H](CC(C)C)C(=O)N[C@@H](Cc1ccccc1)C(=O)O` has Growth Rate at least equal to 0.6.
Output line: t

Input line: Say whether `Cn1cc(-c2ccc3occ(-c4cccc(-c5ccncc5)c4)c3n2)cn1` shows Growth Rate of 0.6 or more.
Output line: f

Input line: Assess whether reported Growth Rate for `Cn1cc(C(=O)OCC2CCN(CCNS(C)(=O)=O)CC2)c2ccccc21` sits at 0.6 or higher.
Output line: f

Input line: Please indicate if the recorded Growth Rate for `Cc1sc2c(c1C)C(c1ccc(Cl)cc1)=N[C@H](CC(=O)OC(C)(C)C)c1nnc(C)n1-2` meets or exceeds 0.6.
Output line: t

Input line: Does `Brc1c(N=C2NCCN2)ccc2nccnc12.O=C(O)C(O)C(O)C(=O)O` have a reported Growth Rate of at least 0.6?
Output line: t

Input line: Decide: is the reported value of Growth Rate for `CC(C)c1noc(N2CCC(COc3ccc(-c4ccc(S(C)(=O)=O)cc4)nc3)CC2)n1` equal to or greater than 0.6?
Output line: f

Reference for the values: ChEMBL document CHEMBL5058564
